Tested on: MS2 coat protein
Assay: apparent Kd, MS2 coat protein; higher = weaker binding; RNA-MaP array
Settings: designed as: ON switch for flavin mononucleotide; no ligand
measured quantity: apparent Kd (nM)

GCGUGACAUGAGGAUCACCCAUGUGGCCUCGGGCUAGGAUAUGCUGAUAUACUCACCACCGCAGAAGGAGCUUCAC : 142
CCUCUCUUCCAGAAGGCUAUCCUAGCAUACGAUAGAGGAUAUGGACCACAAUACGGGUAGAGACACAUGAGGAUCACCCAUGUU : 72.4
GCACACAUGAGUUAGGAUAUAUGUUGUGAGACAUGAGGAUCACCCAUGUGUGCAUUGCUUAUAAUAUAGAAGGAACCCAGGUCGGC : 25.5

Each recorded value in this set is attributed to the EternaBench riboswitch data.
